Measurement description: Isoelectric focusing gel electrophoresis
Format: physicochemical
Measure name: PI

Molecule: E11: human anti-HMG1 antibody, recognizes HMG1 A-Box; VL/VH aa SEQ ID NO: 24/26 (antibody, listed as Homo sapiens, V domains shown) VH: EVQLLESGGGLVQPGGSLRLSCAASGFTFSRYQMNWVRQAPGKGLEWVSSISPSGGHTHYADSVKGRFTISRDNSKNTLYLQMNSLRAEDTAVYYCAKDGRQGKISTVDHWGQGTLVTVSS VL: AQDIQMTQSPGTLSLSPGERATLSCRASQSVRSNFLAWYQQKPGQAPRLLIYGASRRASGIPDRFSGSGFGADFTLSISRLEPEDFAVYYCQQYGSSPNTFGQGSRVEIK
Measure name: PI
Value reported: 8.92
//
Molecule: S14: human anti-HMG1 antibody; VL/VH aa SEQ ID NO: 66/68 (antibody, listed as Homo sapiens, V domains shown) VH: EVQLLESGGGLVQPGGSLRLSCAASGFTFSWYETGWVRQAPGKGLEWVSGISPSGGYTQYADSVKGRFTISRDNSKNTLYLQMNSLRAEDTAVYYCARSGVGATKIFDYWGQGTLVTVSS VL: AQDIQMTQSPSSLSASVGDRVTIICRANERINTYLNWYQQKPGKAPKLLISGTSSLESGVPSRFSGSGSGTEFTLSISSLQPEDFASYYCQQSYSSPYTFGQGTNLEIR
Measure name: PI
Value reported: 8.62
//
Molecule: G12: human anti-HMG1 antibody; VL/VH aa SEQ ID NO: 38/40 (antibody, listed as Homo sapiens, V domains shown) VH: EVQLLESGGGLVQPGGSLRLSCAASGFTFSYYMMTWVRQAPGKGLEWVSSISPSGGYTIYADSAKGRFTISRDNSKNTLYLQMNSLRAEDTAVYYCARALSTGSFWDYWGQGTLVTVSS VL: AQDIQMTQSPGTLSLSPGERATLSCRASESLTSTYVAWYQHKPGQAPRLLIHGGSTRATGIPVRFSGSGSGTDFTLTIATLEPEDFAVYYCQQYGSSPYTFGQGTKLEIK
Measure name: PI
Value reported: 8.6
